Provenance of the data: patent US20200247894A1

Target: T1, Human IL2Rγ extracellular domain expressed with a C-terminal myc-myc-hexahistidine tag (human)
T1 construct: also called hIL-2Rg-MMH; hIL-2RG-MMH
T1 chain: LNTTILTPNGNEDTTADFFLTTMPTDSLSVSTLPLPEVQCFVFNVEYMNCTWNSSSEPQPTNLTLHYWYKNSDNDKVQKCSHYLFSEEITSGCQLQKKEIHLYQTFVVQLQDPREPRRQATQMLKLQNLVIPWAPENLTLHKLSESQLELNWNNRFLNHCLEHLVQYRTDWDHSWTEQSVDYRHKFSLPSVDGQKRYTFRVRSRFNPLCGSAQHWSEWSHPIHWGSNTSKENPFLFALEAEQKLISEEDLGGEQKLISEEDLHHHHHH
Assay: SPR, captured mAb, 37C, dissociation pH 6.0
REPORTED METRIC: t1/2 (min)
Answers are plain numbers, in min.

May I ask what t1/2 has been recorded for H4H12858P (antibody, human IgG4 S228P, kappa, V domains shown, anti-IL2Rgamma mAb expressed with human IgG4 Fc; also called REGN9433) VH: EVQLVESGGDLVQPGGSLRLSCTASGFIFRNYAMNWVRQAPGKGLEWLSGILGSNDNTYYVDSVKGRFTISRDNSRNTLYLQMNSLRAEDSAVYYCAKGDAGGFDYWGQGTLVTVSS VL: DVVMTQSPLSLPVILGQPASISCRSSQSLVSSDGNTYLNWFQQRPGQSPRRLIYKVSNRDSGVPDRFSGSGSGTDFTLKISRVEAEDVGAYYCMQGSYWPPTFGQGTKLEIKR ? 7
